# subject-of-test: Full-length glucokinase (beta cell isoform) (Homo sapiens, UniProt P35557)
# Construct: Full-length glucokinase (beta cell isoform) was His-tagged at N-terminus; His tag (N); made in house
# Sequence (P35557 whole entry, species assumed, canonical isoform): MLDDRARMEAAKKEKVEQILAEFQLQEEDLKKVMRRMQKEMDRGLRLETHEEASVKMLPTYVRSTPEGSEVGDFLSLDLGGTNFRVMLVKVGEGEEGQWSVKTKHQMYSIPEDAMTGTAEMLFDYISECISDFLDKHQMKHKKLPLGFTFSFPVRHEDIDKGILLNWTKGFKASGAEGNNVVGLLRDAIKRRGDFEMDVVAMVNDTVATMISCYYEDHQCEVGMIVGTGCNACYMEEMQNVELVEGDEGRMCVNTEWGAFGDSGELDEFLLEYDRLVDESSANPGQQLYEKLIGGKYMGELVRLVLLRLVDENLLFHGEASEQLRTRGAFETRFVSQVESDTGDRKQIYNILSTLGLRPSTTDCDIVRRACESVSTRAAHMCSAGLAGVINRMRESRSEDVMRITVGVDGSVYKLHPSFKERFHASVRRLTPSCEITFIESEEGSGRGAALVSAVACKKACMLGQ
# experiment-description: Glucokinase biochemical assay (PK/LDH-coupled, NADH depletion at 340 nm): % activation, EC50, % max activation
# condition-details: 5 mM glucose; GK activation; read-out: EC50
# maps each entry to its pEC50
Please note pEC50 is a logarithmic value: minus log10 of concentration in mol/L. Answer with that number alone.

Examples with answers:
Cc1cc2c(Oc3ccc(S(=O)(=O)N4CCC4)cc3)cc(C(=O)Nc3cnc(N(C)C)cn3)cc2o1 [Example 299]: 6.74
Cn1ccc(NC(=O)c2cc(Oc3ccc(C(=O)N4CCOCC4)c(F)c3)c3c(c2)OC(C)(C)C3)n1 [Example 51]: 6.60
C[C@@H](Cc1ccccc1)Oc1cc(C(=O)Nc2ccn(C)n2)cc2c1CC(C)(C)O2 [Example 78]: 5.83
Cc1ccc(NC(=O)c2cc(Oc3ccc(S(=O)(=O)N4CCC4)cc3)c3cc(C)oc3c2)nc1 [Example 297]: 6.89
CCNC(=O)c1c(F)cc(Oc2cc(C(=O)Nc3ccn(C)n3)cc3c2CC(C)(C)O3)cc1F [Example 112]: 7.36

QUERY: Give its pEC50 value. Item: CN(C)C(=O)c1ccc(Oc2cc(C(=O)Nc3ccn(C)n3)cc3c2CC(C)(C)O3)c(Cl)c1 [Example 107]
RESULT: 7.01

QUERY: Please give the result for Cc1ccc(NC(=O)c2cc(Oc3ccc(S(C)(=O)=O)c(F)c3)c3c(c2)OC(C)(C)C3)nc1 [Example 116] too.
RESULT: 7.14

QUERY: Please give the result for CN(C)S(=O)(=O)c1ccc(Oc2cc(C(=O)Nc3ccn(C)n3)cc3c2CC(C)(C)O3)cc1F [Example 130] too.
RESULT: 6.85

QUERY: Please give the result for Cn1ncc(NC(=O)c2cc(Oc3ccc(S(C)(=O)=O)cc3)c3c(c2)OC(C)(C)C3)n1 [Example 20] too.
RESULT: 6.50

QUERY: Please give the result for COCC1(C)Cc2c(Oc3ccc(C(=O)N4CCC4)c(F)c3)cc(C(=O)Nc3ccn(C)n3)cc2O1 (single isomer, unassigned; (-)) [Example 243] too.
RESULT: 7.39

QUERY: Please give the result for Cc1ccc(NC(=O)c2cc(Oc3ccc(S(C)(=O)=O)cc3)c3ocnc3c2)nc1 [Example 367] too.
RESULT: 5.24

QUERY: Please give the result for Cc1cc2c(Oc3ccc(S(C)(=O)=O)cc3)cc(C(=O)Nc3ccccn3)cc2o1 [Example 257] too.
RESULT: 5.85

QUERY: Please give the result for COCc1cc2c(Oc3ccc(S(C)(=O)=O)cc3)cc(C(=O)Nc3ccc(C)cn3)cc2o1 [Example 309] too.
RESULT: 6.64

---

# subject-of-test: Full-length glucokinase (beta cell isoform) (Homo sapiens, UniProt P35557)
# Construct: Full-length glucokinase (beta cell isoform) was His-tagged at N-terminus; His tag (N); made in house
# experiment-description: Glucokinase biochemical assay (PK/LDH-coupled, NADH depletion at 340 nm): % activation, EC50, % max activation
# condition-details: 5 mM glucose; GK activation; read-out: EC50
measure-name: EC50 (µM)
Please respond with the number in µM and leave the unit unwritten.

Examples with answers:
Cn1ccc(NC(=O)c2cc(Oc3ccc(CO)cc3F)c3c(c2)OC(C)(C)C3)n1: 3.6
COc1cnc(NC(=O)c2cc(Oc3ccc(S(=O)(=O)N4CCC4)cc3)c3cc(C)oc3c2)cn1: 0.65

QUERY: Give its EC50 value. Item: Cn1ccc(NC(=O)c2cc(Oc3ccc(S(C)(=O)=O)cc3)c3c(c2)OC(C)(CO)C3)n1 (centres unmarked)
RESULT: 0.69

QUERY: Please give the result for Cc1cc2c(Oc3ccc(C(=O)N(C)C)c(F)c3)cc(C(=O)Nc3ccn(C)n3)cc2o1 too.
RESULT: 0.31

QUERY: Please give the result for Cc1cc2cc(C(=O)Nc3ccn(C)n3)cc(Oc3ccc(S(C)(=O)=O)cc3)c2o1 too.
RESULT: 4.3

QUERY: Please give the result for Cn1ccc(NC(=O)c2cc(Oc3ccc(-c4ncon4)c(Cl)c3)c3c(c2)OC(C)(C)C3)n1 too.
RESULT: 0.87

QUERY: Please give the result for Cc1ccc(NC(=O)c2cc(Oc3ccc(S(C)(=O)=O)cc3F)c3c(c2)OC(C)(C)C3)nc1 too.
RESULT: 0.2
